- Assay Name: Solubility in water
- Measurement Context: water
Measured Attribute: solubility (µg/mL)
Expressed in µg/mL, but write only the number.

In the examples that follow, each entry is paired with its recorded solubility.
Query: Reported solubility for `OC[C@H](O)CO[C@H]1[C@H]2O[C@H]3[C@H](O)[C@@H](O)[C@@H](O[C@H]4[C@H](O)[C@@H](O)[C@@H](O[C@H]5[C@H](O)[C@@H](O)[C@@H](O[C@H]6[C@H](O)[C@@H](O)[C@@H](O[C@H]7[C@H](O)[C@@H](O)[C@@H](O[C@H]8[C@H](O)[C@@H](O)[C@@H](O[C@@H]([C@@H]1O)[C@@H](CO)O2)O[C@@H]8CO)O[C@@H]7CO)O[C@@H]6CO)O[C@@H]5CO)O[C@@H]4CO)O[C@@H]3CO` : what is it?
Result: 12000

Query: Form field: reported solubility of `C[C@H](O)CO[C@H]1[C@H]2O[C@H]3[C@H](O)[C@@H](O)[C@@H](O[C@H]4[C@H](O)[C@@H](O)[C@@H](O[C@H]5[C@H](O)[C@@H](O)[C@@H](O[C@H]6[C@H](O)[C@@H](O)[C@@H](O[C@H]7[C@H](O)[C@@H](O)[C@@H](O[C@H]8[C@H](O)[C@@H](O)[C@@H](O[C@@H]([C@@H]1O)[C@@H](CO)O2)O[C@@H]8CO)O[C@@H]7CO)O[C@@H]6CO)O[C@@H]5CO)O[C@@H]4CO)O[C@@H]3CO`
Result: 3200

More entries:
Query: What value of solubility has been reported for the following molecule? C[C@@H](O)CO[C@H]1[C@H]2O[C@H]3[C@H](O)[C@@H](O)[C@@H](O[C@H]4[C@H](O)[C@@H](O)[C@@H](O[C@H]5[C@H](O)[C@@H](O)[C@@H](O[C@H]6[C@H](O)[C@@H](O)[C@@H](O[C@H]7[C@H](O)[C@@H](O)[C@@H](O[C@H]8[C@H](O)[C@@H](O)[C@@H](O[C@@H]([C@@H]1O)[C@@H](CO)O2)O[C@@H]8CO)O[C@@H]7CO)O[C@@H]6CO)O[C@@H]5CO)O[C@@H]4CO)O[C@@H]3CO [2-O-[(R)-2'-Hydoxypropy]-β-cyclodextrin]
Result: 7500

Query: What value of solubility has been reported for the following molecule? CC(O)CO[C@H]1[C@H]2O[C@H]3[C@H](O)[C@@H](O)[C@@H](O[C@H]4[C@H](O)[C@@H](O)[C@@H](O[C@H]5[C@H](O)[C@@H](O)[C@@H](O[C@H]6[C@H](O)[C@@H](O)[C@@H](O[C@H]7[C@H](O)[C@@H](O)[C@@H](O[C@H]8[C@H](O)[C@@H](O)[C@@H](O[C@@H]([C@@H]1O)[C@@H](CO)O2)O[C@@H]8CO)O[C@@H]7CO)O[C@@H]6CO)O[C@@H]5CO)O[C@@H]4CO)O[C@@H]3CO (stereo partly shown)
Result: 4000
